Each record here notes measured inhibition at 100 µM.
- Test system: HCT-15 cells
- measurement description: 48-hour cellular proliferation assay, sulforhodamine stain (human colon adenocarcinoma, MDR positive)
- Assay type: cell-based
- measurement parameters: Homo sapiens, 10^-4 M
- Protocol: Compounds of this invention were tested in a 48-hour cellular proliferation assay that uses human colon adenocarcinoma, MDR positive (HCT-15) cells, and human lung large cell carcinoma, MDR negative (NCI-H460) cells, in the 96-well microtitre format described in Skehan P., et al. New Colorimetric Cytotoxicity Assay for Anticancer Drug Screening. 1990, J. Natl. Cancer Inst. […] The absorbance of the dye solution was measured with a Molecular Devices SpectraMax340 plate reader. […]
Value expressed in %; do not type the unit.

See these solved cases before continuing.
{"columns": ["compound", "property measured", "recorded number"],
 "data": [
  ["COc1cc(C2CN=C(c3c[nH]c4ccccc34)O2)cc(OC)c1OC (stereo not shown)", "inhibition at 100 µM", 100],
  ["COc1cc(C2=NCC(c3cc(OC)c(OC)c(OC)c3)O2)ccc1N (stereo not shown)", "inhibition at 100 µM", 100]
]}

Documented inhibition at 100 µM of COc1cc(C2CN=C(c3ccc4c(c3)CCN4C)O2)cc(OC)c1OC (stereo not shown) : 100

Entry under test: COc1cc(C2CN=C(c3ccc4c(c3)CCCN4C)O2)cc(OC)c1OC (stereo not shown) . Its inhibition at 100 µM was 100

Lab note: measured inhibition at 100 µM of COc1cc(C2CN=C(c3cc4ccccc4[nH]3)O2)cc(OC)c1OC (stereo not shown) was 100

For COc1ccc(C2=NCC(c3cc(OC)c(OC)c(OC)c3)O2)cc1OC (stereo not shown) the compound record lists inhibition at 100 µM as 91

// recorded inhibition at 100 µM for COc1cc(OC)cc(C2=NCC(c3cc(OC)c(OC)c(OC)c3)O2)c1 (stereo not shown) : 100

====

- System: HCT-15 cells
- measurement description: 48-hour cellular proliferation assay, sulforhodamine stain (human colon adenocarcinoma, MDR positive)
- Type: cell-based
- measurement parameters: Homo sapiens, 10^-4 M
- Experimental: Compounds of this invention were tested in a 48-hour cellular proliferation assay that uses human colon adenocarcinoma, MDR positive (HCT-15) cells, and human lung large cell carcinoma, MDR negative (NCI-H460) cells, in the 96-well microtitre format described in Skehan P., et al. New Colorimetric Cytotoxicity Assay for Anticancer Drug Screening. 1990, J. Natl. Cancer Inst. […] The absorbance of the dye solution was measured with a Molecular Devices SpectraMax340 plate reader. […]
property measured: inhibition at 100 µM (%)
Response body: numeric value in %, unit text excluded.

{"columns": ["molecule", "inhibition at 100 µM / %"],
 "data": [
  ["COCn1ccc2cc(C3=NCC(c4cc(OC)c(OC)c(OC)c4)O3)ccc21 (stereo not drawn)", 100],
  ["COc1ccc(C2=NCC(c3cc(OC)c(OC)c(OC)c3)O2)cc1O (stereo not drawn)", 100],
  ["COc1ccc(C2=NCC(c3cc(OC)c(OC)c(OC)c3)O2)cc1 (stereo not drawn)", 100],
  ["COc1ccc(C2=NCC(c3cc(OC)c(OC)c(OC)c3)O2)cc1OC(C)=O (stereo not drawn)", 91]
]}

Entry COc1cc(C2CN=C(c3ccc4[nH]ccc4c3)O2)cc(OC)c1OC (stereo not drawn) — recorded inhibition at 100 µM = 100

inhibition at 100 µM in this record for CCOc1ccc(C2=NCC(c3cc(OC)c(OC)c(OC)c3)O2)cc1 (stereo not drawn) : 96.2

Per the record, COc1cc(C2CN=C(c3ccc(N)c(C)c3)O2)cc(OC)c1OC (stereo not drawn) has inhibition at 100 µM of 100

Value of measured inhibition at 100 µM for the entry COc1cc(C2=NCC(c3cc(OC)c(OC)c(OC)c3)O2)ccc1OCc1ccccc1 (stereo not drawn) : 96

Summary for this molecule, COc1cc(C2CN=C(c3ccc(N(C)C)cc3)O2)cc(OC)c1OC (stereo not drawn) : inhibition at 100 µM is 100

====

Below, each entry is listed alongside its reported inhibition at 100 µM.
- Tested on: HCT-15 cells
- measurement description: 48-hour cellular proliferation assay, sulforhodamine stain (human colon adenocarcinoma, MDR positive)
- Assay type: cell-based
- measurement parameters: Homo sapiens, 10^-4 M
Give the value in % but do not write % after it.

Per the records, this compound ( COc1cc(C2CN=C(c3ccc4c(ccn4C)c3)O2)cc(OC)c1OC (stereo not drawn) ) has inhibition at 100 µM equal to 100

Kindly note the recorded inhibition at 100 µM for COc1cc(C2CN=C(c3cc(Br)cc4c3OCC4)O2)cc(OC)c1OC (stereo not drawn) , which is 98.9

Per the records, this compound ( COc1cc(C2CN=C(C3CC3C)O2)cc(OC)c1OC (stereo not drawn) ) has inhibition at 100 µM equal to 50
